- Tested on: Streptococcus pyogenes C203
- measurement-notes: MIC, conventional agar-dilution assay
- Assay type: cell-based
Starred links: 1 amine or outer side, 2 acyl side, 3 side chain; linkers in the order of their positions; H or OH if unused. Positions of bridges follow the written chain, without caps; N, C: chain ends. Non-standard residues stand in square brackets, D forms with d. Residues, ends and D or L forms follow the SMILES beside them. ξ: configuration not given here. *: point of attachment. ξAsp(3ξ-OMe) = COC(C(=O)O)C(N)C(=O)O; X1 = CC(CC(=O)O)C(N[*:1])C(=O)[*:2]; ξAsn(3ξ-OH) = NC(=O)C(O)C(N)C(=O)O; Decanoyl = CCCCCCCCCC(=O)*; X3 = CCC(C)CCCCCCC(=O)*; X2 = CC(C)CCCCCCC(=O)*; Sar = CNCC(=O)O
// MIC lookup, one value per entry

| compound | MIC (µg/mL) |
| --- | --- |
| CCC(C)CCCCCCC(=O)NC(Cc1c[nH]c2ccccc12)C(=O)NC(CCC(=O)O)C(=O)NC(C(=O)NC1C(=O)N(C)CC(=O)NC(C)C(=O)NC(CC(=O)O)C(=O)NC(CCCCN)C(=O)NC(C(OC)C(=O)O)C(=O)NCC(=O)NC(CC(N)=O)C(=O)NC(CCC(=O)O)C(=O)NC(C(C)CC)C(=O)OC1C)C(O)C(N)=O (stereo not drawn) [Component A54145D] (X3-WE[ξAsn(3ξ-OH)]T[Sar]ADK[ξAsp(3ξ-OMe)]GNEI; ester 4-C; configuration not given here) | 0.5 |
| CCC(C)CCCCCCC(=O)NC(Cc1c[nH]c2ccccc12)C(=O)NC(CCC(=O)O)C(=O)NC(C(=O)NC1C(=O)N(C)CC(=O)NC(C)C(=O)NC(CC(=O)O)C(=O)NC(CCCCN)C(=O)NC(C(OC)C(=O)O)C(=O)NCC(=O)NC(CC(N)=O)C(=O)NC(C(C)CC(=O)O)C(=O)NC(C(C)CC)C(=O)OC1C)C(O)C(N)=O (stereo not drawn) [Component A54145E] (X3-WE[ξAsn(3ξ-OH)]T[Sar]ADK[ξAsp(3ξ-OMe)]GN[X1]I; ester 4-C; configuration not given here) | 0.25 |
| CCC(C)CCCCCCC(=O)NC(Cc1c[nH]c2ccccc12)C(=O)NC(CCC(=O)O)C(=O)NC(C(=O)NC1C(=O)N(C)CC(=O)NC(C)C(=O)NC(CC(=O)O)C(=O)NC(CCCCN)C(=O)NC(C(OC)C(=O)O)C(=O)NCC(=O)NC(CC(N)=O)C(=O)NC(C(C)CC(=O)O)C(=O)NC(C(C)C)C(=O)OC1C)C(O)C(N)=O (stereo not drawn) [Component A54145C] (X3-WE[ξAsn(3ξ-OH)]T[Sar]ADK[ξAsp(3ξ-OMe)]GN[X1]V; ester 4-C; configuration not given here) | 0.5 |
| CCC(C)C1NC(=O)C(CCC(=O)O)NC(=O)C(CC(N)=O)NC(=O)CNC(=O)C(C(OC)C(=O)O)NC(=O)C(CCCCN)NC(=O)C(CC(=O)O)NC(=O)C(C)NC(=O)CN(C)C(=O)C(NC(=O)C(NC(=O)C(CCC(=O)O)NC(=O)C(Cc2c[nH]c3ccccc23)NC(=O)CCCCCCC(C)C)C(O)C(N)=O)C(C)OC1=O (stereo not drawn) [Component A54145A] (X2-WE[ξAsn(3ξ-OH)]T[Sar]ADK[ξAsp(3ξ-OMe)]GNEI; ester 4-C; configuration not given here) | 2 |
| COC(C(=O)O)C1NC(=O)C(CCCCN)NC(=O)C(CC(=O)O)NC(=O)C(C)NC(=O)CN(C)C(=O)C(NC(=O)C(NC(=O)C(CCC(=O)O)NC(=O)C(Cc2c[nH]c3ccccc23)NC(=O)CCCCCCC(C)C)C(O)C(N)=O)C(C)OC(=O)C(C(C)C)NC(=O)C(CCC(=O)O)NC(=O)C(CC(N)=O)NC(=O)CNC1=O (stereo not drawn) [Component A54145F] (X2-WE[ξAsn(3ξ-OH)]T[Sar]ADK[ξAsp(3ξ-OMe)]GNEV; ester 4-C; configuration not given here) | 4 |
| CCCCCCCCCC(=O)NC(Cc1c[nH]c2ccccc12)C(=O)NC(CCC(=O)O)C(=O)NC(C(=O)NC1C(=O)N(C)CC(=O)NC(C)C(=O)NC(CC(=O)O)C(=O)NC(CCCCN)C(=O)NC(C(OC)C(=O)O)C(=O)NCC(=O)NC(CC(N)=O)C(=O)NC(C(C)CC(=O)O)C(=O)NC(C(C)CC)C(=O)OC1C)C(O)C(N)=O (stereo not drawn) [Component A54145B] (Decanoyl-WE[ξAsn(3ξ-OH)]T[Sar]ADK[ξAsp(3ξ-OMe)]GN[X1]I; ester 4-C; configuration not given here) | 0.5 |

----------
// MIC lookup, one value per entry
- System: Staphylococcus aureus V41
- measurement-notes: MIC, conventional agar-dilution assay
- Assay type: cell-based
Starred links: 1 amine or outer side, 2 acyl side, 3 side chain; linkers in the order of their positions; H or OH if unused. Positions of bridges follow the written chain, without caps; N, C: chain ends. Non-standard residues stand in square brackets, D forms with d. Residues, ends and D or L forms follow the SMILES beside them. ξ: configuration not given here. *: point of attachment. ξAsp(3ξ-OMe) = COC(C(=O)O)C(N)C(=O)O; X1 = CC(CC(=O)O)C(N[*:1])C(=O)[*:2]; ξAsn(3ξ-OH) = NC(=O)C(O)C(N)C(=O)O; X3 = CCC(C)CCCCCCC(=O)*; X2 = CC(C)CCCCCCC(=O)*; Sar = CNCC(=O)O
assay-readout: MIC (µg/mL)

| compound | target-entity | assay-readout | measured-number |
| --- | --- | --- | --- |
| CCC(C)C1NC(=O)C(CCC(=O)O)NC(=O)C(CC(N)=O)NC(=O)CNC(=O)C(C(OC)C(=O)O)NC(=O)C(CCCCN)NC(=O)C(CC(=O)O)NC(=O)C(C)NC(=O)CN(C)C(=O)C(NC(=O)C(NC(=O)C(CCC(=O)O)NC(=O)C(Cc2c[nH]c3ccccc23)NC(=O)CCCCCCC(C)C)C(O)C(N)=O)C(C)OC1=O (stereo not drawn) [Component A54145A] (X2-WE[ξAsn(3ξ-OH)]T[Sar]ADK[ξAsp(3ξ-OMe)]GNEI; ester 4-C; configuration not given here) | Staphylococcus aureus V41 | MIC | 8 |
| COC(C(=O)O)C1NC(=O)C(CCCCN)NC(=O)C(CC(=O)O)NC(=O)C(C)NC(=O)CN(C)C(=O)C(NC(=O)C(NC(=O)C(CCC(=O)O)NC(=O)C(Cc2c[nH]c3ccccc23)NC(=O)CCCCCCC(C)C)C(O)C(N)=O)C(C)OC(=O)C(C(C)C)NC(=O)C(CCC(=O)O)NC(=O)C(CC(N)=O)NC(=O)CNC1=O (stereo not drawn) [Component A54145F] (X2-WE[ξAsn(3ξ-OH)]T[Sar]ADK[ξAsp(3ξ-OMe)]GNEV; ester 4-C; configuration not given here) | Staphylococcus aureus V41 | MIC | 16 |
| CCC(C)C1NC(=O)C(C(C)CC(=O)O)NC(=O)C(CC(N)=O)NC(=O)CNC(=O)C(C(OC)C(=O)O)NC(=O)C(CCCCN)NC(=O)C(CC(=O)O)NC(=O)C(C)NC(=O)CN(C)C(=O)C(NC(=O)C(NC(=O)C(CCC(=O)O)NC(=O)C(Cc2c[nH]c3ccccc23)NC(=O)CCCCCCC(C)C)C(O)C(N)=O)C(C)OC1=O (stereo not drawn) [Component A54145B1] (X2-WE[ξAsn(3ξ-OH)]T[Sar]ADK[ξAsp(3ξ-OMe)]GN[X1]I; ester 4-C; configuration not given here) | Staphylococcus aureus V41 | MIC | 2 |
| CCC(C)CCCCCCC(=O)NC(Cc1c[nH]c2ccccc12)C(=O)NC(CCC(=O)O)C(=O)NC(C(=O)NC1C(=O)N(C)CC(=O)NC(C)C(=O)NC(CC(=O)O)C(=O)NC(CCCCN)C(=O)NC(C(OC)C(=O)O)C(=O)NCC(=O)NC(CC(N)=O)C(=O)NC(CCC(=O)O)C(=O)NC(C(C)CC)C(=O)OC1C)C(O)C(N)=O (stereo not drawn) [Component A54145D] (X3-WE[ξAsn(3ξ-OH)]T[Sar]ADK[ξAsp(3ξ-OMe)]GNEI; ester 4-C; configuration not given here) | Staphylococcus aureus V41 | MIC | 4 |
| CCC(C)CCCCCCC(=O)NC(Cc1c[nH]c2ccccc12)C(=O)NC(CCC(=O)O)C(=O)NC(C(=O)NC1C(=O)N(C)CC(=O)NC(C)C(=O)NC(CC(=O)O)C(=O)NC(CCCCN)C(=O)NC(C(OC)C(=O)O)C(=O)NCC(=O)NC(CC(N)=O)C(=O)NC(C(C)CC(=O)O)C(=O)NC(C(C)CC)C(=O)OC1C)C(O)C(N)=O (stereo not drawn) [Component A54145E] (X3-WE[ξAsn(3ξ-OH)]T[Sar]ADK[ξAsp(3ξ-OMe)]GN[X1]I; ester 4-C; configuration not given here) | Staphylococcus aureus V41 | MIC | 2 |
| CCC(C)CCCCCCC(=O)NC(Cc1c[nH]c2ccccc12)C(=O)NC(CCC(=O)O)C(=O)NC(C(=O)NC1C(=O)N(C)CC(=O)NC(C)C(=O)NC(CC(=O)O)C(=O)NC(CCCCN)C(=O)NC(C(OC)C(=O)O)C(=O)NCC(=O)NC(CC(N)=O)C(=O)NC(C(C)CC(=O)O)C(=O)NC(C(C)C)C(=O)OC1C)C(O)C(N)=O (stereo not drawn) [Component A54145C] (X3-WE[ξAsn(3ξ-OH)]T[Sar]ADK[ξAsp(3ξ-OMe)]GN[X1]V; ester 4-C; configuration not given here) | Staphylococcus aureus V41 | MIC | 2 |
